# Tested on: human A2780 ovarian carcinoma cells
# Protocol notes: Determination of antiproliferative activity on A2780 cells (MTT)
# Type: cell-based
# Run conditions: Homo sapiens, 96 h, four days of incubation, read-out: Cellular activity pIC50 (converted)
Output schema: class label derived from IC50. Mapping: low-valued: < 2000 nM; mid-valued: ≥ 2000 nM and < 3000 nM; high-valued: ≥ 3000 nM

Example entries begin here.
> print(dat)
                                   compound                               system  assigned.category
1  O=C(NO)c1ccc(NC2CCCN(S(=O)(=O)c3ccc(-c4ccccc4)cc3)CC2)nc1 (stereo not drawn) [Co. No. 2]  human A2780 ovarian carcinoma cells         low-valued
2  O=C(NO)c1ccc(NC2CCCN(S(=O)(=O)c3ccc4c(c3)CCCC4)CC2)nc1 (stereo not drawn) [Co. No. 6]  human A2780 ovarian carcinoma cells        high-valued
3  O=C(NO)c1cnc(NC2CCCN(S(=O)(=O)c3ccc4ccccc4c3)CC2)nc1 (stereo not drawn) [Co. No. 3]  human A2780 ovarian carcinoma cells        high-valued
4  O=C(NO)c1cnc(NCC2CN(S(=O)(=O)c3ccc4ccccc4c3)CCO2)nc1 (stereo not drawn) [Co. No. 9]  human A2780 ovarian carcinoma cells         mid-valued
5  O=C(NO)c1cnc(NCC2CCN(S(=O)(=O)c3ccc4ccccc4c3)CC2)nc1 [Co. No. 7]  human A2780 ovarian carcinoma cells        high-valued
6  O=C(NO)c1cnc(NCC2CCCN(S(=O)(=O)c3ccc4ccccc4c3)C2)nc1 (stereo not drawn) [Co. No. 8]  human A2780 ovarian carcinoma cells         low-valued
7  O=C(NO)c1cnc(NC2CCCN(S(=O)(=O)c3ccc(-c4ccccc4)cc3)CC2)nc1 (stereo not drawn) [Co. No. 4]  human A2780 ovarian carcinoma cells         low-valued
8  O=C(NO)c1cnc(NC2CCN(S(=O)(=O)c3ccc4ccccc4c3)CC2)nc1 [Co. No. 5]  human A2780 ovarian carcinoma cells        high-valued

Enquiry: Any idea which band O=C(NO)c1ccc(NC2CCN(S(=O)(=O)c3ccc4ccccc4c3)CC2)nc1 [Co. No. 1] is in?
Return: mid-valued
